Test system: Caco-2
PROCEDURE_DETAILS: Antiproliferative activity against human Caco2 cells incubated for 48 hrs by […] dye staining based assay
Assay type: functional, cell-based
CONDITIONS_USED: Caco-2, 48 h
# reported IC50; entries follow
Give your result in nM as a bare value.

| SMILES_INPUT | IC50 / nM |
| --- | --- |
| COc1ccc2[nH]c3c(=O)[nH]nc(C)c3c2c1 | 8000 |

Asked: Which IC50 is listed for Cc1n[nH]c(=O)c2c1c1cc(Br)ccc1n2Cc1cccc([N+](=O)[O-])c1 ?
Given back: 3000

Asked: Which IC50 is listed for Cc1n[nH]c(=O)c2[nH]c3ccc(Br)cc3c12 ?
Given back: 2000

Asked: Which IC50 is listed for COc1cccc(Cn2c3ccc(F)cc3c3c(C)n[nH]c(=O)c32)c1 ?
Given back: 2000

Asked: Which IC50 is listed for COc1ccc(Cn2c3ccc(Br)cc3c3c(C)n[nH]c(=O)c32)cc1 ?
Given back: 2000

Asked: Which IC50 is listed for COc1ccc(Cn2c3ccc(F)cc3c3c(C)n[nH]c(=O)c32)cc1 ?
Given back: 2000

Asked: Which IC50 is listed for COc1ccc2c(c1)c1c(C)n[nH]c(=O)c1n2Cc1ccc(C#N)cc1 ?
Given back: 6000

Asked: Which IC50 is listed for Cc1n[nH]c(=O)c2c1c1cc(F)ccc1n2Cc1ccc([N+](=O)[O-])cc1 ?
Given back: 2000

Asked: Which IC50 is listed for COc1ccc2c(c1)c1c(C)n[nH]c(=O)c1n2Cc1cccc([N+](=O)[O-])c1 ?
Given back: 5000

Asked: Which IC50 is listed for COc1cccc(Cn2c3ccc(Br)cc3c3c(C)n[nH]c(=O)c32)c1 ?
Given back: 2000

Hey, just so you know, these numbers are from ChEMBL document CHEMBL2086312.
